Numbers sourced from PubChem BioAssay.

PROTOCOL_TEXT: budding yeast growth changes without added modifier – OD600, strain BY4716, 24 h, basal condition, primary screen (AID 1173)
TEST_PARAMETERS: S. cerevisiae BY4716 growth, OD600, 24 h; higher = more signal, called active from +8 up or from −8 down
Could you please report measured z-score for the items listed next?
Give bare numbers.

COMPOUND: [N-]=[N+]=Nc1ccccc1C[C@]1(C(=O)N2CCOCC2)COC(c2ccc(OCCCO)cc2)=N1
z-score: -3.78
--
COMPOUND: C=C(/C(=C/C[C@H](OC(C)=O)c1ccc(CO)o1)c1cnc2ccccc2c1)C(C)C
z-score: -0.269
--
COMPOUND: CCOC(=O)C1=C[C@@H](C(C)C)N(S(=O)(=O)c2ccc(C)cc2)[C@H]1c1ccc(C(F)(F)F)cc1
z-score: 2.42

**Query** Please give the measured z-score for this compound: CCOC(=O)C1=CC[C@@H](c2ccccc2)N(S(=O)(=O)c2ccc(C)cc2)[C@H]1c1ccccc1
**Result** 1.92

* * *

Could you please report measured composite z-score for the items listed next?
PROTOCOL_TEXT: probe aNog binding to arrayed compounds – biochemical, biotinylated probe, 635/667 nm fluorescence, primary screen (AID 1115);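 further: probe is biotinylated aNog protein used at 0.15 µg/mL for 1 h at 4 C; z-score combines 667 nm fluorescence of each spot with its signal to noise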
TEST_PARAMETERS: small-molecule microarray, higher = more signal
One number for each entry.

Completed entries (count: 3):
COMPOUND: COc1ccc([Si](C)(C)[C@@H]2[C@@H](CCO)O[C@]3(C(=O)N(Cc4ccccc4)c4ccc(N5CCOC5=O)cc43)[C@H]2C)cc1
NUMERIC_RESULT: 0.0139
//
COMPOUND: COc1cc(OC)c(C(O)C2C=CC3C(=O)N(Cc4ccccc4)C(=O)C3N2n2cnnc2)cc1Br (centres undefined)
NUMERIC_RESULT: 0.665
//
COMPOUND: COC(=O)[C@@]1(Cc2ccc(OC)cc2)[C@H]2c3cc(C(=O)N(C)C)n(Cc4ccc(C)o4)c3C[C@H]2CN1C(=O)c1ccccc1
NUMERIC_RESULT: 0.243

Let's switch to this compound now.
**Query** Please give the measured composite z-score for this compound: CC(C)(C)OC(=O)CC[C@@]1(C(=O)NCC(O)CO)N=C(c2ccc(OCCCO)cc2)O[C@@H]1c1ccccc1CN=[N+]=[N-] (some centres undefined)
**Result** 0.72

* * *

PROTOCOL_TEXT: viability profiling in MM1S myeloma cells – cell-based, resazurin fluorescence, basal, 24 h, PK04 Diversity Set, profiling panel (AID 1174);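 further: MM1S multiple myeloma cell line; test concentration not given here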
TEST_PARAMETERS: higher = more signal, called active from +8 up or from −8 down
MEASURED_ENDPOINT: z-score
Answers are plain numbers.

Completed entries (count: 2):
COMPOUND: CO[C@H]1O[C@H](CO)[C@@H](OC(=O)Nc2ccc(Br)cc2)[C@@H]2OC(=O)[C@@H](Cc3ccccc3)C/C=C/C[C@H](Cc3ccccc3)C(=O)O[C@@H]12
MEASURED_ENDPOINT: z-score
NUMERIC_RESULT: -3.25

COMPOUND: COC(=O)[C@@]1(Cc2ccccc2)[C@H]2c3cc(C(=O)N(C)C)n(Cc4ccc(C)o4)c3C[C@H]2CN1C(=O)c1ccccc1
MEASURED_ENDPOINT: z-score
NUMERIC_RESULT: -3.41

Let's switch to this compound now.
**Query** Please give the measured z-score for this compound: O=C1O[C@@H](c2ccccc2)[C@@H](c2ccccc2)N2[C@@H](c3ccc(O)cc3)[C@]3(C(=O)Nc4ccc(C#CCCO)cc43)[C@@H](C(=O)N3CCN(c4ncccn4)CC3)[C@H]12
**Result** 0.609
